Values from paper PMC3988263

Test system: cytochrome P450 (harmaline O-demethylation to harmalol)
Method Notes: Harmaline O-demethylation to harmalol in mouse liver microsomes
Type: in vitro ADME
Cond: mouse, mouse liver microsomes, pH 7.5, probe harmaline (10 µM)
Measure Name: Ki at 20 min (nM)

1) COCC(=O)O[C@]1(CCN(C)CCCc2nc3ccccc3[nH]2)CCc2cc(F)ccc2[C@@H]1C(C)C [mibefradil] :: 290

* * *

System: mouse liver microsomes (cytochrome P450, harmaline O-demethylation)
Method Notes: Harmaline O-demethylation to harmalol in mouse liver microsomes
Assay type: in vitro ADME
Measure Name: Ki (nM)

1. CC(C)[C@H]1c2ccc(F)cc2CC[C@@]1(CCN(C)CCCc1nc2ccccc2[nH]1)OC(=O)C1CC1.Cl.Cl [NNC 55-0396] :: 950

* * *

System: CYP3A (mouse liver microsomes)
pKi: −log10 of the molar value.
Measure Name: pKi

1) CC(C)[C@H]1c2ccc(F)cc2CC[C@@]1(CCN(C)CCCc1nc2ccccc2[nH]1)OC(=O)C1CC1.Cl.Cl :: 6.15
